Value source: patent US9073830B2

Can you tell me IC50 for the items I'm about to list?
# study.target: mouse 11β-HSD1 (Mus musculus, UniProt P50172)
# Construct: 100 ug/ml human/mouse liver microsomes; from tissue; host or cells: mouse liver microsomes
# Sequence (P50172 whole entry): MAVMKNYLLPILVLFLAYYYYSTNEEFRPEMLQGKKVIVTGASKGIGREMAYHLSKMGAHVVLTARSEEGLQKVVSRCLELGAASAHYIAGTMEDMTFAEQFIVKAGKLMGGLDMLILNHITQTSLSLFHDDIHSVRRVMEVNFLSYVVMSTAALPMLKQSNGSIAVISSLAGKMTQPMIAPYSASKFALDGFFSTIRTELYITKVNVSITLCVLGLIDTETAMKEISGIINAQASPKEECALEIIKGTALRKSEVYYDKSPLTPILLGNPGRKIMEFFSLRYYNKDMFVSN
# measurement.protocol: Enzyme activity analysis on mouse 11β-HSD1 (HTRF cortisol, liver microsomes)
# Type: biochemical
# measurement.setup: second value of cell
# Description: After culturing at 37° C. for 2 hours, 5 μl of cryptate-labeled anti-cortisol antibody and 5 μl of d2-labeled cortisol were added thereto. After further culturing at room temperature for 2 hours, a homogeneous time-resolved fluorescence (HTRF, Cisbio) signal was measured. From each analysis, based on a standard curve calculated using cortisols of several known concentrations, an amount of produced cortisol was tested. […]

Solved entries:
> print(dat)
                                   compound    result
1  NC(=O)C12CC3CC(C1)C(NC(=O)C1(NS(=O)(=O)c4cc(Cl)c(Cl)cc4Cl)CCC1)C(C3)C2 (stereo not drawn)  0.428 µM
2  O=C(NC1C2CC3CC(C2)CC1C3)C1(NS(=O)(=O)c2ccccc2Br)CCC1 (stereo not drawn)  0.806 µM
3  CNC(=O)C12CC3CC(C1)C(NC(=O)C1(NS(=O)(=O)c4ccccc4Cl)CCC1)C(C3)C2 (stereo not drawn)  > 2.5 µM
4  Cc1c(Cl)cccc1S(=O)(=O)N(C)C(C)(C)C(=O)NC1C2CC3CC1CC(O)(C3)C2 (stereo not drawn)  0.042 µM
5  CC(C)(NS(=O)(=O)c1ccccc1C(F)(F)F)C(=O)NC1C2CC3CC1CC(O)(C3)C2 (stereo not drawn)  0.138 µM

# batch: return IC50 for each of the 6 compounds below
1. Cc1cc(C)cc(S(=O)(=O)NC(C)(C)C(=O)NC2C3CC4CC2CC(C(N)=O)(C4)C3)c1 (stereo not drawn)
2. Cc1ccccc1S(=O)(=O)NC1(C(=O)NC2C3CC4CC2CC(C(N)=O)(C4)C3)CCCC1 (stereo not drawn)
3. O=C(NC1C2CC3CC(C2)CC1C3)C1(NS(=O)(=O)c2ccccc2[N+](=O)[O-])CCC1 (stereo not drawn)
4. CC(C)(NS(=O)(=O)c1cc(C(F)(F)F)ccc1C(F)(F)F)C(=O)NC1C2CC3CC1CC(C(N)=O)(C3)C2 (stereo not drawn)
5. CC(C)(NS(=O)(=O)c1ccccc1C(N)=O)C(=O)NC1C2CC3CC(C2)CC1C3 (stereo not drawn)
6. NC(=O)C12CC3CC(C1)C(NC(=O)C1(NS(=O)(=O)c4ccccc4Cl)CCCC1)C(C3)C2 (stereo not drawn)

1: 0.107 µM; 2: 0.049 µM; 3: 1.1 µM; 4: 1.24 µM; 5: > 2.5 µM; 6: 0.012 µM

Quick request: IC50 for each listed item, please.
1. O=C(NC1C2CC3CC(C2)CC1C3)C1(NS(=O)(=O)c2ccc([N+](=O)[O-])cc2)CCC1 (stereo not drawn)
2. CC(C)(NS(=O)(=O)c1cc(Cl)cc(Cl)c1)C(=O)NC1C2CC3CC(C2)CC1C3 (stereo not drawn)
3. COc1ccc(OC)c(S(=O)(=O)NC(C)(C)C(=O)NC2C3CC4CC(C3)CC2C4)c1 (stereo not drawn)
4. COc1ccc(S(=O)(=O)NC(C)(C)C(=O)NC2C3CC4CC2CC(C(N)=O)(C4)C3)cc1[N+](=O)[O-] (stereo not drawn)

1: > 2.5 µM; 2: > 2.5 µM; 3: 1.83 µM; 4: 2.46 µM

* * *

# study.target: mouse 11β-HSD1 (Mus musculus)
# Construct: 100 ug/ml human/mouse liver microsomes; from tissue; host or cells: mouse liver microsomes
# measurement.protocol: Enzyme activity analysis on mouse 11β-HSD1 (HTRF cortisol, liver microsomes)
# Format: biochemical
# measurement.setup: second value of cell
parameter.measured: log10 IC50 (log10 of the value in µM)
Scale: log10; quantity: IC50; unit before log: µM

These solved cases illustrate the format of a correct answer.
> print(dat)
                                   molecule                   study.target  parameter.measured  result
1  CC(=O)c1ccc(S(=O)(=O)NC(C)(C)C(=O)NC2C3CC4CC(C3)CC2C4)cc1 (centres unmarked)  mouse 11β-HSD1 (Mus musculus)          log10 IC50   -0.07
2  CC(C)(NS(=O)(=O)c1ccccc1N)C(=O)NC1C2CC3CC1CC(C(N)=O)(C3)C2 (centres unmarked)  mouse 11β-HSD1 (Mus musculus)          log10 IC50   -0.93

Would you be so kind as to report log10 IC50 for each listed record?
1. CC(C)(NS(=O)(=O)c1cccc(Cl)c1)C(=O)NC1C2CC3CC(C2)CC1C3 (centres unmarked)
2. CC(C)c1ccc(S(=O)(=O)NC(C)(C)C(=O)NC2C3CC4CC(C3)CC2C4)cc1 (centres unmarked)
3. CC(C)(NS(=O)(=O)c1cccnc1Cl)C(=O)NC1C2CC3CC(C2)CC1C3 (centres unmarked)
4. CC(C)(NS(=O)(=O)c1cccc(C(F)(F)F)c1)C(=O)NC1C2CC3CC1CC(C(N)=O)(C3)C2 (centres unmarked)
5. CC(C)(NS(=O)(=O)Cc1ccccc1)C(=O)NC1C2CC3CC(C2)CC1C3 (centres unmarked)
6. CN(C(C)(C)C(=O)NC1C2CC3CC1CC(C(N)=O)(C3)C2)S(=O)(=O)c1cccc2cccnc12 (centres unmarked)

[-0.13, 0.12, -0.53, -1.28, -0.55, -2.15]

* * *

# study.target: mouse 11β-HSD1 (Mus musculus, UniProt P50172)
# Construct: 100 ug/ml human/mouse liver microsomes; from tissue; host or cells: mouse liver microsomes
# measurement.protocol: Enzyme activity analysis on mouse 11β-HSD1 (HTRF cortisol, liver microsomes)
# Assay type: biochemical
# measurement.setup: second value of cell
Please respond with reported IC50 for every item in the list.
Numbers only, in µM.

Provide reported IC50 for each item, in the same order as listed.
1. NC(=O)C12CC3CC(C1)C(NC(=O)C1(NS(=O)(=O)c4ccc(OC(F)F)cc4)CCC1)C(C3)C2 (stereo not drawn)
2. CC(C)(NS(=O)(=O)c1ccc(Br)cc1)C(=O)NC1C2CC3CC(C2)CC1C3 (stereo not drawn)
3. CC(C)(NS(=O)(=O)c1ccccc1OC(F)(F)F)C(=O)NC1C2CC3CC(C2)CC1C3 (stereo not drawn)
4. CC(C)(NS(=O)(=O)Cc1ccccc1Cl)C(=O)NC1C2CC3CC(C2)CC1C3 (stereo not drawn)
5. COc1ccc(S(=O)(=O)NC(C)(C)C(=O)NC2C3CC4CC2CC(C(N)=O)(C4)C3)cc1F (stereo not drawn)
6. CN(C(C)(C)C(=O)NC1C2CC3CC1CC(C(N)=O)(C3)C2)S(=O)(=O)c1cccc(Cl)c1Cl (stereo not drawn)
7. Cc1c(Cl)cccc1S(=O)(=O)NC1(C(=O)NC2C3CC4CC2CC(C(N)=O)(C4)C3)CCCCC1 (stereo not drawn)

[0.559, 1.65, 0.42, 0.7, 0.456, 0.003, 0.328]

* * *

# study.target: human 11β-HSD1 (Homo sapiens)
# Construct: 100 ug/ml human/mouse liver microsomes; from tissue; host or cells: human liver microsomes
# Sequence (P28845 whole entry): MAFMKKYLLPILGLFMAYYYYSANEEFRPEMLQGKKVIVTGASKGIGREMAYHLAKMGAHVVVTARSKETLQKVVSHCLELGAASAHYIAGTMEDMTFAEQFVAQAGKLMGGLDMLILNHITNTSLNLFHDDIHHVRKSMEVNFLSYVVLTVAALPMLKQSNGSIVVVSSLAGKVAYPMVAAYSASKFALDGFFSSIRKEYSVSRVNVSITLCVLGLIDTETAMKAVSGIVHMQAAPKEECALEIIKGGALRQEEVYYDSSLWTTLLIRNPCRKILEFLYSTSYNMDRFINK
# measurement.protocol: Enzyme activity analysis on human 11β-HSD1 (HTRF cortisol, liver microsomes)
# Assay type: biochemical
# measurement.setup: first value of cell
parameter.measured: IC50

Reference set (3 entries):
> print(dat)
                                   molecule                   study.target    result
1  CC(C)(NS(=O)(=O)c1c(Cl)cc(Cl)cc1Cl)C(=O)NC1C2CC3CC(C2)CC1C3 (stereo not drawn) [compound 14]  human 11β-HSD1 (Homo sapiens)   0.17 µM
2  NC(=O)C12CC3CC(C1)C(NC(=O)C1(NS(=O)(=O)c4cccc(Cl)c4F)CCC1)C(C3)C2 (stereo not drawn) [compound 159]  human 11β-HSD1 (Homo sapiens)  0.096 µM
3  NC(=O)C12CC3CC(C1)C(NC(=O)C1(NS(=O)(=O)c4c(Cl)cccc4Cl)CC1)C(C3)C2 (stereo not drawn) [compound 134]  human 11β-HSD1 (Homo sapiens)  0.021 µM

// input: 4 molecules below; output: IC50 for each
1. CC(C)c1ccc(S(=O)(=O)NC(C)(C)C(=O)NC2C3CC4CC(C3)CC2C4)cc1 (stereo not drawn) [compound 57]
2. CCCc1ccc(S(=O)(=O)NC(C)(C)C(=O)NC2C3CC4CC(C3)CC2C4)cc1 (stereo not drawn) [compound 67]
3. COc1cc([N+](=O)[O-])ccc1S(=O)(=O)NC(C)(C)C(=O)NC1C2CC3CC1CC(C(N)=O)(C3)C2 (stereo not drawn) [compound 128]
4. CC(C)(NS(=O)(=O)c1ccccc1Cl)C(=O)NC1C2CC3CC1CC(C(=O)NC1CCCCC1)(C3)C2 (stereo not drawn) [compound 233]

["1.04 µM", "1.29 µM", "0.076 µM", "> 2.5 µM"]

For each of the molecules below, note its IC50.
1. CC(C)(NS(=O)(=O)c1cccc([N+](=O)[O-])c1)C(=O)NC1C2CC3CC(C2)CC1C3 (stereo not drawn) [compound 66]
2. NC(=O)C12CC3CC(C1)C(NC(=O)C1(NS(=O)(=O)c4ccccc4[N+](=O)[O-])CCC1)C(C3)C2 (stereo not drawn) [compound 145]
3. Cc1c(Cl)cccc1S(=O)(=O)N(C)C(C)(C)C(=O)NC1C2CC3CC1CC(C(N)=O)(C3)C2 (stereo not drawn) [compound 191]
4. CC(C)(NS(=O)(=O)c1cc(C(F)(F)F)cc(C(F)(F)F)c1)C(=O)NC1C2CC3CC(C2)CC1C3 (stereo not drawn) [compound 49]
5. NC(=O)C12CC3CC(C1)C(NC(=O)C1(NS(=O)(=O)c4ccccc4[N+](=O)[O-])CCCCC1)C(C3)C2 (stereo not drawn) [compound 184]

1: 0.511 µM; 2: 0.08 µM; 3: 0.009 µM; 4: 1.35 µM; 5: 0.005 µM

State recorded IC50 for all listed molecules.
1. CC(C)(NS(=O)(=O)c1ccccc1[N+](=O)[O-])C(=O)NC1C2CC3CC1CC(C(N)=O)(C3)C2 (stereo not drawn) [compound 106]
2. NC(=O)C12CC3CC(C1)C(NC(=O)C1(NS(=O)(=O)c4ccccc4C(F)(F)F)CCCCC1)C(C3)C2 (stereo not drawn) [compound 181]
3. CC(C)(NS(=O)(=O)c1cccc(C(F)(F)F)c1)C(=O)NC1C2CC3CC(C2)CC1C3 (stereo not drawn) [compound 19]

1. 0.041 µM
2. 0.019 µM
3. 0.478 µM
